From: ChEMBL document CHEMBL3988442

Tested on: Trypanosoma brucei
Test: Trypanosoma brucei 72 hour study
Type: functional, organism-based
Set-up: scale not given: in the data most compounds retested in dose-response had high values
Conditions: 30.3 µM; […]
Out of some 66,000 compounds screened, about 960 (1.5%) showed an effect of 50% or more. This is one part of a sample in which strong results are shown more often than they occur.
quantity measured: Percent Effect

// solved cases for Percent Effect follow
COc1ccc(CN2CCC(CO)(Cc3ccc(Cl)cc3)CC2)c(O)c1 = -63.01%
COCCO[C@H]1CCN(c2ccc(C)nn2)[C@H]1Cc1cccnc1.O=C(O)C(F)(F)F.O=C(O)C(F)(F)F = -12.33%
Cc1nc(Nc2ncccn2)cc(C2CCN(CC(C)C)C2)n1 (stereo not given) = 4.591%

Dear colleague, could you please provide Percent Effect for the compounds listed below?
1. Cc1nc(CN2CCC3(CC2)NC(=O)CC3c2ccccc2)cs1.O=C(O)C(F)(F)F (stereo not given)
2. Cc1ccc(N2CC[C@H]3O[C@@H](C(=O)N4CCCCO4)CC[C@H]32)nn1.O=C(O)C(F)(F)F
3. C[C@@H]1C(=O)NC[C@H]2CN(CCc3ccccc3)C[C@H]21.O=C(O)C(F)(F)F
4. COCCN1CC2(CCOCC2)c2cc(NC(=O)C3CC=CC3)ccc21.O=C(O)C(F)(F)F

10.42%
-38.73%
-1.404%
4.18%

Dear colleague, could you please provide Percent Effect for the compounds listed below?
1. O=C(O)C(F)(F)F.O=C(c1cscn1)N1CC[C@@H]2[C@@H]1CCN2C1CCOCC1
2. CCc1nccn1-c1cncc(C2CCCN2)n1.Cl (stereo not given)
3. CN1CC(C(=O)NCCc2ccn(-c3ccc(F)cc3)n2)CC1=O (stereo not given)

1: -53.41%; 2: -8.115%; 3: -29.7%

Dear colleague, could you please provide Percent Effect for the compounds listed below?
1. Cc1nn(C)cc1CNCc1ccc(N(C)C)cc1
2. Cc1ncnc2c1CCN(C(=O)c1cnccn1)CC2
3. COCCN1CCC2(CC1)CC(NC(=O)COC)c1ccccc1O2.O=C(O)C(F)(F)F (stereo not given)
4. Cc1cccnc1[C@]1(O)CC[C@H]2CN(Cc3cccc(Cl)c3Cl)C[C@H]21.O=C(O)CC(O)(CC(=O)O)C(=O)O
5. CCc1cccc(N2CCC(NC(=O)C3CCOCC3)CC2)c1
6. CC(=O)N1CCN([C@@H]2CC[C@@H](NC(=O)c3ccc(C)nc3)[C@H]2O)CC1
7. CC(C)NC(=O)N1CCN(CCn2cccn2)c2ncccc2C1.O=C(O)C(F)(F)F

1: -17.42%; 2: 17.88%; 3: -14.34%; 4: -4.562%; 5: -1.63%; 6: -14.37%; 7: -82.31%

Dear colleague, could you please provide Percent Effect for the compounds listed below?
1. CC(C)C[C@@H]1N[C@H](C(=O)NC(C)C)Cc2c[nH]c3cccc1c23
2. Cc1ccc(-c2nc(CN(Cc3cccs3)CC3CCCO3)no2)cc1 (stereo not given)
3. O=C(NCCc1ccn(-c2ccc(F)cc2)n1)C1CCCO1 (stereo not given)

["19.91%", "9.515%", "99.62%"]

====

Tested on: Trypanosoma brucei
Test: Trypanosoma brucei 72 hour study
Type: functional, organism-based
Set-up: scale not given: in the data most compounds retested in dose-response had high values
Conditions: 30.3 µM; […]
Screen size: about 66,000 compounds; about 960 (1.5%) showed an effect of 50% or more. This is one part of a sample in which strong results are shown more often than they occur.
quantity measured: Percent Effect (%)
Answers are plain numbers, in %.

// solved cases for Percent Effect follow
Cc1cc(-n2cccn2)ccc1CN1CCOCC(CN(C)C)C1 (stereo unspecified) = -10.31
Cc1ccc(CN(Cc2ccccn2)C2CC(C)(C)NC(C)(C)C2)s1.O=C(O)CC(O)(CC(=O)O)C(=O)O = 71.04
CN(C)c1cc(CC(NC(=O)C2CC2)c2ccccc2)nc(C2CC2)n1 (stereo unspecified) = 52.69
CCCN(Cc1cccnc1)C1CC(C)(C)NC(C)(C)C1.O=C(O)CC(O)(CC(=O)O)C(=O)O = 3.437

Dear colleague, could you please provide Percent Effect for the compounds listed below?
1. CC(C)C(=O)NC(Cc1cc(N(C)C)nc(C2CC2)n1)c1ccccc1 (stereo unspecified)
2. O=C(O)C(F)(F)F.O=C1N(CC2CC2)CCC12CCN(c1ncccn1)CC2
3. Cl.O=C(c1ccccc1F)N1CC2(CCNCC2)c2cc(Cl)ccc21
4. CCC(=O)NC(Cc1cc(N(C)C)nc(C2CC2)n1)c1ccccc1 (stereo unspecified)
5. Cc1ccsc1CN(Cc1cccnc1)C1CC(C)(C)NC(C)(C)C1.O=C(O)CC(O)(CC(=O)O)C(=O)O

1: 30.74; 2: -19.41; 3: -26.55; 4: 13.14; 5: 61.32

Dear colleague, could you please provide Percent Effect for the compounds listed below?
1. Cc1cc(N2CCC(CC(N)=O)CC2)nc(-c2ccncc2)n1
2. NCC(c1ccc(Cl)cc1)N1CCc2sccc2C1 (stereo unspecified)
3. Cc1nc[nH]c1CN(Cc1ccccc1)C1CC(C)(C)NC(C)(C)C1.O=C(O)CC(O)(CC(=O)O)C(=O)O
4. CN(C)S(=O)(=O)N1C[C@H]2C[C@H](C(=O)Nc3cccnc3)[C@@H](C1)O2
5. Fc1cccc(CN2CCOC3(COCCN(CC4CC4)C3)C2)c1.O=C(O)C(F)(F)F.O=C(O)C(F)(F)F (stereo unspecified)
6. CC(C)c1ccc(C(CN)N2CCc3sccc3C2)cc1 (stereo unspecified)
7. CN(C)CC(=O)N1CCCC1c1cncc(Oc2ccc(F)cc2)n1 (stereo unspecified)
8. Cc1ccc(C)c(-n2cc(CN3CC[C@@H](O)C3)c(-c3ccccc3)n2)c1

1. 0.7336
2. 100.3
3. 9.969
4. -739.2
5. -50.27
6. 99.87
7. -19.56
8. 100.3

Dear colleague, could you please provide Percent Effect for the compounds listed below?
1. CS(=O)(=O)N1CCC2(CC1)CN(CC1CCOC1)c1ccccc12.O=C(O)C(F)(F)F (stereo unspecified)
2. CNc1nc(C2CCCN2C(C)=O)nc2c1CN(CCO)CC2.O=CO (stereo unspecified)
3. Cc1ccccc1-n1cc(-c2ccnc(N3CCCC(O)C3)n2)cn1 (stereo unspecified)

18.78
20.17
12.09
